experiment notes: Bioavailability in Han Wistar rat at 2 micromol/kg, po and 1 umol/kg, iv
Format: ADME, organism-based
condition summary: Han Wistar, in vivo, 2 µmol/kg
property measured: bioavailability (%)
Answers are plain numbers, in %.

C=CC(=O)N1CCN2c3ncnc4c(F)c(-c5c(O)cccc5F)c(Cl)c(c34)OC[C@@H]2C1; 0

Provide each entry's bioavailability from the list below.
1. C=CC(=O)N1C[C@H]2COc3c(Cl)c(-c4c(O)cccc4F)c(F)c4ncnc(c34)N2C[C@@H]1C
2. C=CC(=O)N1CCN2c3ncnc4cc(-c5c(C)ccc6[nH]ncc56)c(Cl)c(c34)OCC[C@H]2C1 (single isomer, unassigned; atropisomer 2)
3. C=CC(=O)N1CCN2c3ncnc4c(F)c(-c5c(O)cccc5F)c(Cl)c(c34)OCC[C@H]2C1

Return:
1: 31; 2: 16; 3: 36

Just for reference, ChEMBL document CHEMBL5154891 is where these values come from.
